# system-name: CpunPBP5-m4 (CpunPBP5-Arg120 mutant) (Conogethes punctiferalis, UniProt A0A0M4FIS7, R145K)
# Sequence (A0A0M4FIS7 entry or part of it R145K): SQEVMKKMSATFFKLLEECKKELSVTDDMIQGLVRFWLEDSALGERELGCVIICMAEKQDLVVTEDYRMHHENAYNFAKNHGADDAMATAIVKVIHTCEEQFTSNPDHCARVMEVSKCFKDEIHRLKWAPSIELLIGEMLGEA
# assay-info: Fluorescence displacement binding assay of mutants
pKd: −log10 of the molar value.
parameter-measured: pKd

[[record]]
molecule = "CCCCC/C=C/CCCCCCCCC=O [E10-16:Ald, (E)-10-hexadecenal]"
parameter_measured = "pKd"
result_number = 5.97

[[record]]
molecule = "CCCCC/C=C\\CCCCCCCCC=O [Z10-16:Ald, (Z)-10-hexadecenal]"
parameter_measured = "pKd"
result_number = 5.98


* * *

# system-name: CpunPBP2 (Conogethes punctiferalis)
# Sequence (A0A1D6X8W8 entry or part of it): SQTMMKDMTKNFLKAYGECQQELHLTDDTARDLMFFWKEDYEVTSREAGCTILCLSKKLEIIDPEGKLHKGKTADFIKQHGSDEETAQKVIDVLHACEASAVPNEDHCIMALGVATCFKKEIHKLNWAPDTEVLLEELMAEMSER
# assay-info: Fluorescence displacement (competitive, 1-NPN) binding assay
# recorded-conditions: pH = 7.4; calculated from IC50: KD = [IC50]/(1+[1-NPN]/K1-NPN); read-out: KD (μM), calculated dissociation constant
parameter-measured: Kd (µM)

[[record]]
compound = "C=C(C)[C@H]1CC=C(C)CC1"
result_number = 6.92

[[record]]
compound = "CCC(C)CCCC(C)C (centres unmarked)"
result_number = 6.38

[[record]]
compound = "CCCCC/C=C/CCCCCCCCC=O [E10-16:Ald, (E)-10-hexadecenal]"
result_number = 0.4

[[record]]
compound = "CCCCCC/C=C/C=O [Trans-2-nonenal]"
result_number = 12.9

[[record]]
compound = "CCCCCCC=O"
result_number = 10.4

[[record]]
compound = "CCCCCCCCCCCCCCCC=O"
result_number = 1.07

[[record]]
compound = "CCCCC/C=C/C=O [Trans-2-octanal]"
result_number = 7.15

[[record]]
compound = "CCCCCCCCCCC=O"
result_number = 4.34

[[record]]
compound = "CCCCC/C=C\\CCCCCCCCC=O [Z10-16:Ald, (Z)-10-hexadecenal]"
result_number = 0.42

[[record]]
compound = "CCCCCCCCCC=O"
result_number = 7.62

[[record]]
compound = "C=CC(=C)CC/C=C(\\C)CCC=C(C)C"
result_number = 1.63

[[record]]
compound = "C=C1CC/C=C(\\C)CC[C@@H]2[C@@H]1CC2(C)C (relative stereo) [Trans-caryopyllene]"
result_number = 3.58

[[record]]
compound = "CCCCCCCCCCCCCCCC(=O)O"
result_number = 8.27

[[record]]
compound = "CCCCCCCCC=O"
result_number = 8.5

